# growth listing for each entry below
tested on: SW-620 colon; experiment: NCI-60 one-dose screen, 48 h (100 = growth as untreated, 0 = no growth, -100 = all killed); conditions: 10 µM unless noted
The panel holds about 83,000 compounds, 20% with a hit somewhere; the sample as a whole holds those more often.
// units = %; emit number, no label

CCCCn1c(-c2ccc(C(=O)O/N=C(\N)c3ccc4ccccc4c3)cc2)nc(-c2ccccc2)c1-c1ccccc1
80.1

Okay, now this molecule:
Please give the documented growth of COc1ccccc1NS(=O)(=O)c1ccc2oc(SC(C)C)nc2c1
102

###

test system: NCI-H322M lung; test: NCI-60 one-dose screen, 48 h; conditions: 10 µM unless noted
The panel holds about 83,000 compounds, 20% with a hit somewhere; the sample as a whole holds those more often. The source made the active and inactive calls. The calls were made as follows: active = growth percent below 10; inactive = the rest.
Respond with a class label; see True (active), False (inactive)

Solved cases below.
Clc1ccc2c(NCCCCNc3nc(N4CCCCC4)nc4ccccc34)ccnc2c1
True
c1ccc(CCNc2ncnc3[nH]ncc23)cc1
False

For C#CCOc1ccc2ncnc(Nc3cccc(CNC(=O)C=C)c3)c2c1 , what call appears in the results of this test?
False

In this assay, the call recorded for O=C1/C(=C/N2N=C(c3ccc4ccccc4c3)CC2c2ccccc2O)SC(=S)N1c1cccnc1 (stereo unspecified) was what?
False

Status in this test for COc1ccc(C(=S)N2CCN(c3cccc(Cl)c3)CC2)cc1 ?
False

For O=C(CN1CCCCC1)Nc1ccc2oc(=O)ccc2c1 , what call appears in the results of this test?
False

Would you mind telling me which call this test gave C=CC(=O)Nc1cccc(-c2nc(SC)nc(NCCN3CCOCC3)c2C#N)c1 ?
False

src = PubChem BioAssay (NCI)
